# System: K12877-001-R-J1-PDC complex spheroid viability;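 further: tumour cells co-cultured with HUVEC and mesenchymal stem cells in spheroids; spheroids exposed to agents for one week before readout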
# Assay info: Anticancer human tumor K12877-001-R-J1-PDC patient-derived lung adenocarcinoma cell line growth inhibition [RAS]
# Stated conditions: second compound 0.3 µM; first compound 0.0316 µM; stronger effect = lower value
Endpoint: viability, T/C (%)
Quick reminder: number only, in %, skip the unit.

molecule C=CC(=O)N1CCN(c2nc(OCC3CCCN3C)nc3c(F)c(-c4nc(N)cc(C)c4C(F)(F)F)c(Cl)cc23)C(C)C1 (centres undefined) + CCn1c(-c2cc(N3CCN(C)CC3)cnc2C(C)OC)c2c3cc(ccc31)-c1csc(n1)CC(NC(=O)C1CC1C)C(=O)N1CCCC(N1)C(=O)OCC(C)(C)C2 , viability, T/C observed: 90.7

molecule NC1c2ccccc2OC12CCN(c1cnc3c(N4CCCc5ncccc54)n[nH]c3n1)CC2 (centres undefined) + CCn1c(-c2cc(N3CCN(C)CC3)cnc2C(C)OC)c2c3cc(ccc31)-c1csc(n1)CC(NC(=O)C1CC1C)C(=O)N1CCCC(N1)C(=O)OCC(C)(C)C2 , viability, T/C observed: 77.4

molecule Nc1ccn(C2OC(CO)C(O)C2(F)F)c(=O)n1 (centres undefined) + CCn1c(-c2cc(N3CCN(C)CC3)cnc2C(C)OC)c2c3cc(ccc31)-c1csc(n1)CC(NC(=O)C1CC1C)C(=O)N1CCCC(N1)C(=O)OCC(C)(C)C2 , viability, T/C observed: 17

molecule Cc1nc(N2CCC3(CC2)COC(C)C3N)c(CO)nc1Sc1ccnc(N)c1Cl (centres undefined) + CCn1c(-c2cccnc2C(C)OC)c2c3cc(ccc31)N1CCOC(CC(NC(=O)C(C(C)C)N(C)C(=O)C3(F)CCN(C(=O)C#CC(C)(C)N(C)C)CC3)C(=O)N3CCCC(N3)C(=O)OCC(C)(C)C2)C1 , viability, T/C observed: 57.1
